Documented tissue to tissue ratio at 4 h across a set of compounds
assay: Biodistribution in BALB/c nude mice bearing A431-CCK2R/A431-mock xenografts; format: in vivo; settings: female, athymic BALB/c nude, mouse, A431-CCK2R xenograft / stomach, iv, 20 pmol, total radioactivity, A431-CCK2R xenograft, BALB/c nude mice, ~20 pmol, 4 h p.i. (indium-111 or lutetium-177), mean ± SD n = 4; read-out: tumor-to-organ ratio: stomach
Where a SMILES comes first, the peptide text is derived from it. [ ]: non-standard residue; d: D form. The star is where a group is joined. DOTA = O=C(O)CN1CCN(CC(=O)O)CCN(CC(=O)*)CCN(CC(=O)O)CC1; 1Nal = N[C@@H](Cc1cccc2ccccc12)C(=O)O; NMeNle = CCCC[C@H](NC)C(=O)O
Please respond with just the number, no unit label.

# annotated cases, reported tissue to tissue ratio at 4 h shown
1. CCCC[C@@H](C(=O)N[C@@H](CC(=O)O)C(=O)N[C@@H](Cc1cccc2ccccc12)C(=O)NC)N(C)C(=O)[C@H](Cc1c[nH]c2ccccc12)NC(=O)CNC(=O)[C@H](Cc1ccc(O)cc1)NC(=O)[C@H](C)NC(=O)[C@@H](CCC(=O)O)NC(=O)CN1CCN(CC(=O)O)CCN(CC(=O)O)CCN(CC(=O)O)CC1 [[^111In]In-DOTA-MGS5[NHCH3], metal not drawn] ... 4.33
2. CCCC[C@@H](C(=O)N[C@@H](CC(=O)O)C(=O)N[C@@H](Cc1cccc2ccccc12)C(N)=O)N(C)C(=O)[C@H](Cc1c[nH]c2ccccc12)NC(=O)CNC(=O)[C@H](Cc1ccc(O)cc1)NC(=O)[C@H](C)NC(=O)[C@@H](CCCCN)NC(=O)CN1CCN(CC(=O)O)CCN(CC(=O)O)CCN(CC(=O)O)CC1 [[^111In]In-DOTA-[DLys^1]MGS5, metal not drawn] ({DOTA}-[dK]AYGW[NMeNle]D[1Nal]-NH2) ... 4.69
3. CCCC[C@@H](C(=O)N[C@@H](CC(=O)O)C(=O)N(C)[C@@H](Cc1cccc2ccccc12)C(N)=O)N(C)C(=O)[C@H](Cc1c[nH]c2ccccc12)NC(=O)CNC(=O)[C@H](Cc1ccc(O)cc1)NC(=O)[C@H](C)NC(=O)[C@@H](CCC(=O)O)NC(=O)CN1CCN(CC(=O)O)CCN(CC(=O)O)CCN(CC(=O)O)CC1 [[^111In]In-DOTA-[(N-Me)1Nal^8]MGS5, metal not drawn] ... 11.5

Query compound follows.
Input: Find the recorded tissue to tissue ratio at 4 h belonging to CCCC[C@@H](C(=O)N[C@@H](CC(=O)O)C(=O)N[C@@H](Cc1ccc2ccccc2c1)C(N)=O)N(C)C(=O)[C@H](Cc1c[nH]c2ccccc12)NC(=O)CNC(=O)[C@H](Cc1ccc(O)cc1)NC(=O)[C@H](C)NC(=O)[C@@H](CCC(=O)O)NC(=O)CN1CCN(CC(=O)O)CCN(CC(=O)O)CCN(CC(=O)O)CC1 [[^111In]In-DOTA-[2Nal^8]MGS5, metal not drawn] and report it.
Output: 3.66

---

assay: Biodistribution in BALB/c nude mice bearing A431-CCK2R/A431-mock xenografts; type: in vivo; settings: female, athymic BALB/c nude, mouse, A431-CCK2R xenograft / blood, iv, 20 pmol, total radioactivity, A431-CCK2R xenograft, BALB/c nude mice, 20 pmol, gallium-68, 1 h p.i., mean ± SD n = 4; read-out: tumor-to-organ ratio: blood
reported_endpoint: tissue to tissue ratio at 1 h
Please respond with just the number, no unit label.

Input: Find the recorded tissue to tissue ratio at 1 h belonging to CCCC[C@@H](C(=O)N[C@@H](CC(=O)O)C(=O)N(C)[C@@H](Cc1cccc2ccccc12)C(N)=O)N(C)C(=O)[C@H](Cc1c[nH]c2ccccc12)NC(=O)CNC(=O)[C@H](Cc1ccc(O)cc1)NC(=O)[C@H](C)NC(=O)[C@@H](CCC(=O)O)NC(=O)CN1CCN(CC(=O)O)CCN(CC(=O)O)CCN(CC(=O)O)CC1 [[^68Ga]Ga-DOTA-[(N-Me)1Nal^8]MGS5, metal not drawn] and report it.
Output: 6.03
